# assay_target: UniProtKB Q9Y5Z0
# Sequence (Q9Y5Z0 63-473 limits assumed): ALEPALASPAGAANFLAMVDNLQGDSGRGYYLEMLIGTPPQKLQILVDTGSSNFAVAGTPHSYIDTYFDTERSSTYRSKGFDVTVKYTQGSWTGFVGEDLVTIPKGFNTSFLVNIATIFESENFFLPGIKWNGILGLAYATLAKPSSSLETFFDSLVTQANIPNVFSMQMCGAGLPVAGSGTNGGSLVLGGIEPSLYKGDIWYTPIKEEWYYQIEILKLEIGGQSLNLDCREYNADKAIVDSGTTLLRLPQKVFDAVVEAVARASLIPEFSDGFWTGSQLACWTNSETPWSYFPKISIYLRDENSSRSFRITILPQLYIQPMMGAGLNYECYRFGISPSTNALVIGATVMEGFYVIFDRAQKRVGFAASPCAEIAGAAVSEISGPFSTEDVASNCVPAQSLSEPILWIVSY
# run_description: BACE-2 Assay (BACE-HTRF assay)
# Assay type: biochemical
# condition_summary: Ki calculated from IC50 using the Cheng-Prusoff equation; QSY7-EISEVNLDAEFC-Eu-amide substrate 200 nM, pH 5.0
endpoint_label: Ki (µM)

INSERT INTO assay_data (entry_smiles, unit, result) VALUES
  ('Cc1ncc2c(n1)C[C@@](C)(c1cc(-c3cccc(C#N)c3)cs1)NC2=N', 'µM', 0.0879),
  ('Cc1ncc2c(n1)C[C@@](C)(c1sc(-c3ccc(F)c(C#N)c3)cc1Cl)NC2=N', 'µM', 0.0283),
  ('CC#Cc1cncc(-c2ccc(F)c([C@]3(C)Cc4ncncc4C(=N)N3)c2)c1', 'µM', 0.0202),
  ('C[C@@]1(c2sc(-c3cncc(C#N)c3)cc2Cl)Cc2ncncc2C(=N)N1', 'µM', 0.0316),
  ('C[C@@]1(c2cc(-c3cncc(Cl)c3)ccc2F)Cc2ncncc2C(=N)N1', 'µM', 0.13),
  ('C[C@@]1(c2cc(-c3cccc(C#N)c3)cs2)Cc2nc(C(F)(F)F)ncc2C(=N)N1', 'µM', 0.0231);

----------
# assay_target: soluble human BACE1 catalytic domain (Homo sapiens (Human), UniProt P56817)
# Sequence (P56817 75-416): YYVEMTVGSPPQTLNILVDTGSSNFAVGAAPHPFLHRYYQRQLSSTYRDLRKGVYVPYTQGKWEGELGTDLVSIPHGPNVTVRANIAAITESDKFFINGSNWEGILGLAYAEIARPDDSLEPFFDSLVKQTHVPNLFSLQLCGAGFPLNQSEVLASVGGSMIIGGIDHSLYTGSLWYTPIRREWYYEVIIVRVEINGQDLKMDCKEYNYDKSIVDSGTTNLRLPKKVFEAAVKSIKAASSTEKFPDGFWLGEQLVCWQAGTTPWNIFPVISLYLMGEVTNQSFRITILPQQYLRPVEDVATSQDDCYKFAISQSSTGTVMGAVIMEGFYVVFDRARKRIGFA
Each record here notes measured Ki.
endpoint_label: Ki (nM)

INSERT INTO results (entry_smiles, result) VALUES
  ('CC#Cc1cncc(-c2ccc(F)c([C@]3(C)Cc4ncncc4C(=N)N3)c2)c1', 108),
  ('C[C@@]1(c2cc(NC(=O)c3ccc(C(F)(F)F)cn3)ccc2F)Cc2nc(C3CC3)ncc2C(=N)N1', 20.5),
  ('Cc1ncc2c(n1)C[C@@](C)(c1sc(-c3ccc(F)c(C#N)c3)cc1Cl)NC2=N', 52.1),
  ('C[C@@]1(c2sc(-c3cncc(C#N)c3)cc2Cl)Cc2ncncc2C(=N)N1', 75.2),
  ('C[C@@]1(c2cc(NC(=O)c3ccc(F)cn3)ccc2F)Cc2ncncc2C(=N)N1', 9.4),
  ('C[C@]1(c2sc(-c3cccc(C#N)c3)cc2Cl)NC(=N)c2cncnc2C1(F)F', 246),
  ('C[C@@]1(c2cc(NC(=O)c3ccc(C#N)cn3)ccc2F)Cc2nccnc2C(=N)N1', 62.7),
  ('C[C@@]1(c2sc(-c3cccc(C#N)c3)cc2Cl)Cc2ncncc2C(=N)N1', 35.2),
  ('C[C@@]1(c2sc(-c3cccc(C#N)c3)cc2Cl)Cc2nc(C3CC3)ncc2C(=N)N1', 48.9),
  ('COc1cccc2cc(-c3cc(Cl)c([C@]4(C)Cc5nc(C6CC6)ncc5C(=N)N4)s3)[nH]c12', 22.3),
  ('Cc1ncc2c(n1)C[C@@](C)(c1sc(-c3cccc(-c4nnco4)c3)cc1Cl)NC2=N', 10.6),
  ('C[C@@]1(c2cc(-c3cncc(C#N)c3)ccc2F)Cc2ncncc2C(=N)N1', 601),
  ('COc1cccc(-c2ccc(F)c([C@]3(C)Cc4ncncc4C(=N)N3)c2)c1', 199);

Where do the numbers come from? From patent US9868738B2.
